Where do the numbers come from? From ChEMBL document CHEMBL1201862.

- System: BT-549
- TEST: NCI tumour cell line growth inhibition, 48 h
The source made the active and inactive calls. Rule as the data show it: active = GI50 up to about 1.1 µM and inactive = higher.
Provide the recorded GI50 for the entries that follow.

Recorded result, O=P(O)(O)C(NCC(O)CN1CCOCC1)P(=O)(O)O (stereo not given) , GI50: > 100 µM (inactive)

Recorded result, Nc1nc(Cl)c(N)c(NCC2(CO)CC(O)C2)n1 (stereo not given) , GI50: > 100 µM (inactive)

Recorded result, CC(C)=CCC[C@@H](C)C1=CC(=O)C(C)=C(O)C1=O , GI50: 5.78 µM (inactive)

Recorded result, C[N+]1(CCC[N+]2(C)CC3C4C=CC(CC4)C3C2)CCOCC1 (stereo not given) , GI50: > 100 µM (inactive)

Recorded result, C=C1C(=O)O[C@@H]2[C@@H]3O[C@@H](C[C@@H]13)[C@](C)(O)CC/C=C(\C)CCC[C@@H]2C , GI50: 12.6 µM (inactive)

* * *

- System: SK-MEL-28
- TEST: NCI tumour cell line growth inhibition, 48 h
Active and inactive are the calls of the source. No stated cut-off is given here; in the data, active = GI50 up to about 1.1 µM and inactive = higher.
QUANTITY KIND: GI50

Recorded result, CC(=O)N(C(C)=O)n1c(Cc2ccc(Cl)cc2)n[nH]c1=O , GI50: > 100 µM (inactive)

Recorded result, Cc1ccc(S[C@@H](C)[C@@](O)(C(N)=O)c2ccccc2)cc1 , GI50: > 100 µM (inactive)

Recorded result, O=C1C(=C(I)I)c2ccccc2-c2ccccc21 , GI50: 2.59 µM (inactive)

Recorded result, C=CCc1ccccc1CC1(OCC)OC(=O)c2ccccc21 (stereo unspecified) , GI50: > 100 µM (inactive)

Recorded result, COc1ccc2c(c1)[n+]([O-])c(-c1ccccc1Cl)c(N)[n+]2[O-] , GI50: > 100 µM (inactive)

Recorded result, COC1(OC)C2(Cl)C3=CCCC=C3C1(Cl)C(Cl)=C2Cl , GI50: 30.2 µM (inactive)

* * *

Provide the recorded GI50 for the entries that follow.
- Tested on: Malme-3M
- TEST: NCI tumour cell line growth inhibition, 48 h
Active and inactive are the calls of the source. No stated cut-off is given here; in the data, active = GI50 up to about 1.1 µM and inactive = higher.

Recorded result, Cc1cc(-c2cccc3ccccc23)c(C#N)c(=S)n1C1OC(CO)C(O)C(O)C1O (stereo unspecified) , GI50: > 100 µM (inactive)

Recorded result, CN(C)c1ccc(C2CC(c3ccc4ccccc4c3O)=NN2c2ccc([N+](=O)[O-])cc2[N+](=O)[O-])cc1 (stereo unspecified) , GI50: 19.2 µM (inactive)

Recorded result, CCOC(=O)c1sc2nc(SC)nc(Nc3ccc4c(c3)OCCO4)c2c1N , GI50: 12 µM (inactive)

Recorded result, CC1(C)N=C(N)N=C(N)N1c1cccc(OCc2cccc(N)c2)c1 , GI50: > 71.9 µM (inactive)

Recorded result, O=C(/C=C1\Nc2ccccc2C(=O)N1c1ccc(Cl)cc1)c1ccncc1 , GI50: 60.1 µM (inactive)

Recorded result, CC(=O)c1c(SCCN2CCOCC2)n(-c2ccccc2)c(=S)n(-c2ccccc2)c1=O , GI50: 28.2 µM (inactive)

Recorded result, O=C1Nc2nnc(S)n2NC12c1ccccc1-c1ccccc12 , GI50: > 100 µM (inactive)

Recorded result, C/C(=N/OCCC(=O)O)C1CC1 , GI50: > 100 µM (inactive)

Recorded result, CCN(CC)C(=S)SS(=O)(=O)c1ccc(C)cc1 , GI50: 20.4 µM (inactive)

Recorded result, CC(C#N)(NO)C(C)(C#N)NO (stereo unspecified) , GI50: > 100 µM (inactive)

Recorded result, COc1nc(=O)n(C2CC(N=[N+]=[N-])C(CO)O2)cc1C (stereo unspecified) , GI50: > 100 µM (inactive)

* * *

Provide the recorded GI50 for the entries that follow.
- Tested on: CAKI-1
- TEST: NCI tumour cell line growth inhibition, 48 h
Calls of active or inactive are those of the source. Cut-off read from the data, not from the text of the source: active = GI50 up to about 1.1 µM and inactive = higher.

Measured GI50 (CAKI-1), entry CC(C)c1ccc(/C=C2/C=C(c3ccc4ccccc4c3)OC2=O)cc1 : > 82.4 µM (inactive)

Measured GI50 (CAKI-1), entry CSC1=Nc2ccccc2N=C(c2ccccc2)C1 : 75.2 µM (inactive)

Measured GI50 (CAKI-1), entry CN(C)c1nc2oc(-c3ccccc3)c(-c3ccccc3)c2c2nncn12 : > 100 µM (inactive)

Measured GI50 (CAKI-1), entry C=C(C)C1CC/C(C)=C/CCC2(C)OC2CC/C(CO)=C\C1O (centres undefined) : > 100 µM (inactive)

Measured GI50 (CAKI-1), entry O=C(Nc1cc(Cl)ccc1Cl)C(=O)C(c1cnc2ccccc2n1)[N+](=O)[O-] (centres undefined) : > 100 µM (inactive)

Measured GI50 (CAKI-1), entry CCOC(=O)c1c(C)c2c(n1C)CCc1c[nH]nc1-2 : > 100 µM (inactive)

Measured GI50 (CAKI-1), entry Cc1ccc(S(=O)(=O)NCCN(CCNS(=O)(=O)c2ccc(C)cc2)S(=O)(=O)c2ccc(C)cc2)cc1 : > 100 µM (inactive)

Measured GI50 (CAKI-1), entry CCCCc1ccc(-n2sc3ncc(-c4ccccc4)cc3c2=O)cc1 : 64.3 µM (inactive)

Measured GI50 (CAKI-1), entry CCC1=[N+]([O-])C(C)(C)NC1(C)C : > 10 µM (inactive)

* * *

- System: NCI-H460
- TEST: NCI tumour cell line growth inhibition, 48 h
Activity calls are given as the source filed them. Cut-off read from the data, not from the text of the source: active = GI50 up to about 1.1 µM and inactive = higher. Where a SMILES comes first, the peptide text is derived from it. [ ]: non-standard residue; d: D form. The star is where a group is joined. Phe(4-NO2) = N[CH](Cc1ccc([N+](=O)[O-])cc1)C(=O)O; Boc = CC(C)(C)OC(=O)*; OtBu = CC(C)(C)O*
QUANTITY KIND: GI50

Recorded result, [O-][Cl+3]([O-])([O-])[O-].[O-][Cl+3]([O-])([O-])[O-].c1ccn2c(N3CCCC3)[n+]3c4ccccc4n4c(N5CCCC5)[n+]5ccccc5c4c3c2c1 , GI50: 94.4 µM (inactive)

Recorded result, [O-]c1c[n+](CCCC[n+]2cc([O-])on2)no1 , GI50: > 100 µM (inactive)

Recorded result, COC(=O)C(Cc1ccc([N+](=O)[O-])cc1)NC(=O)C(CC(=O)OC(C)(C)C)NC(=O)OC(C)(C)C (configuration not stated) (Boc-Asp(OtBu)-[Phe(4-NO2)]-OMe; configuration not given here) , GI50: > 100 µM (inactive)

Recorded result, CSc1nc(SC)c2c(CO)c(Br)n(Cc3ccccc3)c2n1 , GI50: 15.7 µM (inactive)

Recorded result, C=CC1(C)CC(=O)C2(O)C(C)(O1)C(OC(C)=O)C(O)C1C(C)(C)CCC(O)C12C (configuration not stated) , GI50: 89.1 µM (inactive)

Recorded result, c1ccc(-c2nnc(-c3nn(-c4ccccc4)c4nc5ccccc5nc34)o2)cc1 , GI50: > 10 µM (inactive)

Recorded result, O=C1c2ccccc2-c2oc(=O)c3ccccc3c21 , GI50: > 100 µM (inactive)

Recorded result, O/N=C1/C(=C/c2ccc(Cl)cc2)CCCC1C(NO)c1ccc(Cl)cc1 (configuration not stated) , GI50: 17.3 µM (inactive)

Recorded result, CCOC(=O)c1c(N2CCOCC2)ncn(-c2cccc(Cl)c2)c1=O , GI50: > 100 µM (inactive)

Recorded result, C[Si](C)(C)C#C[I+]c1ccccc1 , GI50: > 100 µM (inactive)

Recorded result, CC(C)=CCC[C@@H](C)C1=CC(=O)C(C)=C(O)C1=O , GI50: 16.3 µM (inactive)

Recorded result, Cc1cnc2c(c1)C(=O)C1=C(OC(C)(C)CC1O)C2=O (configuration not stated) , GI50: 11 µM (inactive)

* * *

- Tested on: A549
- TEST: NCI tumour cell line growth inhibition, 48 h
The source made the active and inactive calls. Cut-off read from the data, not from the text of the source: active = GI50 up to about 1.1 µM and inactive = higher. Where a SMILES comes first, the peptide text is derived from it. Square brackets hold non-standard residues; d marks the D form. Peptide text beside a SMILES is read from it. [ ]: non-standard residue; d: D form. The star is where a group is joined. * marks the point of attachment. X26 = COC1=CC(=O)N(C(=O)[C@@H](O*)C(C)C)[C@H]1Cc1ccccc1; Phe(4-NO2) = N[CH](Cc1ccc([N+](=O)[O-])cc1)C(=O)O; NMeL = CN[C@@H](CC(C)C)C(=O)O; Hexanoyl = CCCCCC(=O)*; Boc = CC(C)(C)OC(=O)*; OtBu = CC(C)(C)O*
QUANTITY KIND: GI50

Measured GI50 (A549), entry c1nc(OCC2CCCCC2)c2nc[nH]c2n1 : 66.4 µM (inactive)

Measured GI50 (A549), entry COc1ccc(/C=C/C(=O)c2c(-c3ccccc3)nn(C)c(=O)c2N2CCOCC2)cc1 : > 100 µM (inactive)

Measured GI50 (A549), entry NC1=NC(=O)/C(=C2\CCNC(=O)c3[nH]c(Br)cc32)N1 [HYMENIALDISINE] : > 70.3 µM (inactive)

Measured GI50 (A549), entry Cc1ccc(S(=O)(=O)NCCN(CCNS(=O)(=O)c2ccc(C)cc2)S(=O)(=O)c2ccc(C)cc2)cc1 : 25.7 µM (inactive)

Measured GI50 (A549), entry N#C/N=C(\N)NCCO : > 100 µM (inactive)

Measured GI50 (A549), entry CCCCCC(=O)N[C@H](C(=O)N[C@H](C(=O)N(C)[C@@H](CC(C)C)C(=O)N1CCC[C@H]1C(=O)N1CCC[C@H]1C(=O)O[C@H](C(=O)N1C(=O)C=C(OC)[C@@H]1Cc1ccccc1)C(C)C)C(C)C)C(C)C (Hexanoyl-VV[NMeL]PP-X26) : 18.1 µM (inactive)

Measured GI50 (A549), entry O=C1Nc2ccccc2/C1=N/N=c1\cccc[nH]1 : 48.8 µM (inactive)

Measured GI50 (A549), entry COC(=O)C(Cc1ccc([N+](=O)[O-])cc1)NC(=O)C(CC(=O)OC(C)(C)C)NC(=O)OC(C)(C)C (centres undefined) (Boc-Asp(OtBu)-[Phe(4-NO2)]-OMe; configuration not given here) : > 100 µM (inactive)

Measured GI50 (A549), entry O=c1[nH]nc(Cc2ccc(Cl)cc2)n1O : > 100 µM (inactive)

Measured GI50 (A549), entry O=[N+]([O-])c1ccc(-n2nnc(C3=NCCN3)c2-c2ccc(Cl)cc2)cc1 : > 100 µM (inactive)

Measured GI50 (A549), entry O=C(O)c1ccc(C(O)(c2ccccc2)c2ccccc2)cc1 : > 100 µM (inactive)

Measured GI50 (A549), entry CC1CN=C(Nc2ccc(F)cc2F)S1 (centres undefined) : > 100 µM (inactive)

Measured GI50 (A549), entry CC1(C)S[C@H](c2ccccc2C(=O)O)N[C@@H]1CC(=O)O : > 100 µM (inactive)

Measured GI50 (A549), entry COC1(OC)C2(Cl)C3=CCCC=C3C1(Cl)C(Cl)=C2Cl : 27.2 µM (inactive)

Measured GI50 (A549), entry O=C1C(Cl)=CC2(C=C1Cl)CCNC1=C2C(=O)c2nc[nH]c2C1=O : > 100 µM (inactive)

Measured GI50 (A549), entry O=C1CSC(c2cccc([N+](=O)[O-])c2)N1c1ccc(-n2c(-c3ccccc3)nc3ccccc3c2=O)cc1 (centres undefined) : > 100 µM (inactive)

Measured GI50 (A549), entry Cn1c(O)c(C(=O)Nc2ccc([N+](=O)[O-])cc2)c(=O)n(C)c1=S : 3.42 µM (inactive)

Measured GI50 (A549), entry CC(=O)C(=[N+]=[N-])C(=O)N1CCOC1=O : > 10 µM (inactive)

Measured GI50 (A549), entry COc1ccc(Cn2c(=O)c(OC)c(C)c3cc4ccccc4cc32)cc1 : 34.4 µM (inactive)
